Target: IL-6 (Homo sapiens, UniProt P05231)
Construct: purchased R&D Systems 206-IL-200/CF
Sequence (P05231 30-212): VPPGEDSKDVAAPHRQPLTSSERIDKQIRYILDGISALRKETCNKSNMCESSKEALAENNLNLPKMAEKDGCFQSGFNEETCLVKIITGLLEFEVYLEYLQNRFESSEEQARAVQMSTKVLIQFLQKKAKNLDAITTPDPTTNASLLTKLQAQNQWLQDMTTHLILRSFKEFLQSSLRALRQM
Assay: Kinetic analysis using surface plasmon resonance (Biacore T200), immobilized IL-6
Type: binding
Settings: Table 9, mutation study 5; MGSSHHHHHHGSS-[Y#####]-A
pKd: −log10 of the molar value.
experimental.endpoint: pKd

substance	subject.of.test	experimental.endpoint	observed.value
Y02703: IL-6 binding Y variant, Y02444 with K15Y Q26E, SEQ ID NO:87 (LAEAKEAAIAELDSYGVGAVEIKQIEEALLVEIVQLLKQAILAVLPA; Engineered IL-6 binding Y variant)	IL-6 (Homo sapiens, UniProt P05231)	pKd	6.92
Y02697: IL-6 binding Y variant, Y02444 with I9L, SEQ ID NO:81 (LAEAKEAALAELDSKGVGAVEIKQIQEALLVEIVQLLKQAILAVLPA; Engineered IL-6 binding Y variant)	IL-6 (Homo sapiens, UniProt P05231)	pKd	6.82
Y02700: IL-6 binding Y variant, Y02415 with I9L, SEQ ID NO:84 (LAEAKEAALAELDSKGVGAGDIKDIQDALLVEIVQLLKQAILAVLPA; Engineered IL-6 binding Y variant)	IL-6 (Homo sapiens, UniProt P05231)	pKd	7.21
Y02701: IL-6 binding Y variant, Y02415 with K15Y, SEQ ID NO:85 (LAEAKEAAIAELDSYGVGAGDIKDIQDALLVEIVQLLKQAILAVLPA; Engineered IL-6 binding Y variant)	IL-6 (Homo sapiens, UniProt P05231)	pKd	6.68
Y02698: IL-6 binding Y variant, Y02444 with K15Y, SEQ ID NO:82 (LAEAKEAAIAELDSYGVGAVEIKQIQEALLVEIVQLLKQAILAVLPA; Engineered IL-6 binding Y variant)	IL-6 (Homo sapiens, UniProt P05231)	pKd	6.92
Y02699: IL-6 binding Y variant, Y02444 with Q26E, SEQ ID NO:83 (LAEAKEAAIAELDSKGVGAVEIKQIEEALLVEIVQLLKQAILAVLPA; Engineered IL-6 binding Y variant)	IL-6 (Homo sapiens, UniProt P05231)	pKd	6.70
Y02702: IL-6 binding Y variant, Y02415 with Q26E, SEQ ID NO:86 (LAEAKEAAIAELDSKGVGAGDIKDIEDALLVEIVQLLKQAILAVLPA; Engineered IL-6 binding Y variant)	IL-6 (Homo sapiens, UniProt P05231)	pKd	6.36

###

Biological target: insulin (Homo sapiens, UniProt P01308)
Construct: purchased Roche 1376497
Sequence (P01308 25-54 limits assumed): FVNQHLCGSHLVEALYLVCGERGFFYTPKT
Sequence (P01308 90-110 limits assumed): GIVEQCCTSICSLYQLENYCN
Test: Kinetic analysis using surface plasmon resonance (Biacore T200), immobilized insulin
Format: binding
Settings: Table 4, mutation study 2; MGSSHHHHHHGSS-[Y#####]
Some substances, each annotated with its measured Kd.
experimental.endpoint: Kd (µM)

substance	experimental.endpoint	observed.value
Y00295: insulin binding Y variant, Y00270 with E35Q + E39Q + A43K, SEQ ID NO:127 (LAEAKEAAIAELDSKGVGAYQIKFIELAKSVEHVQLLKQAILKDLP; Engineered insulin binding Y variant)	Kd	0.58
Y00293: insulin binding Y variant, Y00270 with E35Q + E39Q, SEQ ID NO:125 (LAEAKEAAIAELDSKGVGAYQIKFIELAKSVEHVQLLKQAILADLP; Engineered insulin binding Y variant)	Kd	0.49
Y00292: insulin binding Y variant, Y00032 with S23K + E35Q + E39Q, SEQ ID NO:124 (LAEAKEAAIAELDSKGVGAYQKKFIELAKSVEHVQLLKQAILADLP; Engineered insulin binding Y variant)	Kd	0.45
Y00294: insulin binding Y variant, Y00270 with E35Q + A43K, SEQ ID NO:126 (LAEAKEAAIAELDSKGVGAYQIKFIELAKSVEHVQLLKEAILKDLP; Engineered insulin binding Y variant)	Kd	0.49

###

Assay: Circular dichroism spectroscopy analysis (CD spectra, variable temperature measurement, refolding)
Format: physicochemical
Settings: Table 3, mutation study 1; MGSSHHHHHHGSS-[Y#####]

substance	Tm (°C)
Y00001: C4 binding Y variant from Ylib001Naive.I, SEQ ID NO:1 (LAEAKEAAIAELDSKGINEAIISKIERAESVEEVEYWKEEILAQLP; Engineered C4 binding Y variant)	57
Y00266: insulin binding Y variant, Y00032 with G18S, SEQ ID NO:113 (LAEAKEAAIAELDSKGVSAYQKSFIELAKSVEHVELLKEAILADLP; Engineered insulin binding Y variant)	50
Y00265: insulin binding Y variant, Y00032 with V17I, SEQ ID NO:112 (LAEAKEAAIAELDSKGIGAYQKSFIELAKSVEHVELLKEAILADLP; Engineered insulin binding Y variant)	47

###

Assay: Circular dichroism spectroscopy analysis (CD spectra, variable temperature measurement, refolding)
Assay type: physicochemical
Settings: Table 9, mutation study 5; MGSSHHHHHHGSS-[Y#####]-A
Let's look at some substances and their measured Tm.
experimental.endpoint: Tm (°C)

substance	observed.value
Y02716: insulin binding Y variant, Y00301 with K15Y Q26E, SEQ ID NO:156 (LAEAKEAAIAELDSYGVGARQIKWIEQAKSVEVVQWLKQAILADLPA; Engineered insulin binding Y variant)	58
Y02688: C4 binding Y variant, Y02330 with I9L, SEQ ID NO:43 (LAEAKEAALAELDSKGVGAELIKKIQHAESVEGVQFWKQEILAYLPA; Engineered C4 binding Y variant)	50
Y02690: C4 binding Y variant, Y02330 with Q26E, SEQ ID NO:45 (LAEAKEAAIAELDSKGVGAELIKKIEHAESVEGVQFWKQEILAYLPA; Engineered C4 binding Y variant)	53
Y02713: insulin binding Y variant, Y00310 with K15Y, SEQ ID NO:153 (LAEAKEAAIAELDSYGVGAYQIKFIQIAHTVEEVQLMKQAILADLPA; Engineered insulin binding Y variant)	51
Y02689: C4 binding Y variant, Y02330 with K15Y, SEQ ID NO:44 (LAEAKEAAIAELDSYGVGAELIKKIQHAESVEGVQFWKQEILAYLPA; Engineered C4 binding Y variant)	53

###

Recorded Kd by entry
Target: insulin (Homo sapiens, UniProt P01308)
Construct: purchased Roche 1376497
Assay: Kinetic analysis using surface plasmon resonance (Biacore T200), immobilized insulin
Type: binding
Settings: Table 3, mutation study 1; MGSSHHHHHHGSS-[Y#####]
experimental.endpoint: Kd (µM)

substance	observed.value
Y00264: insulin binding Y variant, Y00032 with K15Y, SEQ ID NO:111 (LAEAKEAAIAELDSYGVGAYQKSFIELAKSVEHVELLKEAILADLP; Engineered insulin binding Y variant)	0.064
Y00269: insulin binding Y variant, Y00032 with S23K, SEQ ID NO:116 (LAEAKEAAIAELDSKGVGAYQKKFIELAKSVEHVELLKEAILADLP; Engineered insulin binding Y variant)	0.39
Y00266: insulin binding Y variant, Y00032 with G18S, SEQ ID NO:113 (LAEAKEAAIAELDSKGVSAYQKSFIELAKSVEHVELLKEAILADLP; Engineered insulin binding Y variant)	0.056
Y00275: insulin binding Y variant, Y00032 with E39Q, SEQ ID NO:122 (LAEAKEAAIAELDSKGVGAYQKSFIELAKSVEHVELLKQAILADLP; Engineered insulin binding Y variant)	0.059

###

Biological target: IL-6 (Homo sapiens, UniProt P05231)
Construct: purchased R&D Systems 206-IL-200/CF
Test: Kinetic analysis using surface plasmon resonance (Biacore T200), immobilized IL-6
Assay type: binding
Conditions: Table 7; MGSSHHHHHHGSS-[Y#####]-A

substance	Kd (µM)
Y02415: IL-6 binding Y variant from Ylib002Naive.I, SEQ ID NO:74 (LAEAKEAAIAELDSKGVGAGDIKDIQDALLVEIVQLLKQAILAVLPA; Engineered IL-6 binding Y variant)	0.16
Y02447: IL-6 binding Y variant from Ylib002Naive.I, SEQ ID NO:76 (LAEAKEAAIAELDSKGVGAHGIKEIQDAILVEIVQLLKQAILAALPA; Engineered IL-6 binding Y variant)	0.16
Y02465: IL-6 binding Y variant from Ylib002Naive.I, SEQ ID NO:78 (LAEAKEAAIAELDSKGVGANHIKAIQHAQFVEIVQLLKQAILAVLPA; Engineered IL-6 binding Y variant)	0.27
Y02495: IL-6 binding Y variant from Ylib002Naive.I, SEQ ID NO:79 (LAEAKEAAIAELDSKGVGAEEIKEIQGAMLVEIVQLLKQAILAVLPA; Engineered IL-6 binding Y variant)	0.24
Y02374: IL-6 binding Y variant from Ylib002Naive.I, SEQ ID NO:72 (LAEAKEAAIAELDSKGVGAAEIKRIQAAELVEIVQLLKQAILAVLPA; Engineered IL-6 binding Y variant)	0.12
Y02444: IL-6 binding Y variant from Ylib002Naive.I, SEQ ID NO:75 (LAEAKEAAIAELDSKGVGAVEIKQIQEALLVEIVQLLKQAILAVLPA; Engineered IL-6 binding Y variant)	0.061

Value source: patent US11505576B2
